TARGET_SYSTEM: Solute carrier family 2, facilitated glucose transporter member 1 (Homo sapiens)
EXPERIMENT: ST_JUDE_LEISH: Cytotoxicity at 2uM final concentration against transgenic Leishmania Mexicana promastigotes LmGLUT1 that are glucose transport deficient and complemented with the human glucose transporter GLUT1. Activity is measured by DNA content using SYBR green in vitro
Type: functional

{"MOLECULE": "NCC1CCCN1Cc1ccc(-c2cccc(-c3nc4cc(C(F)(F)F)ccc4[nH]3)c2)cc1 (stereo unspecified)", "inhibition (%)": 1.03}
{"MOLECULE": "CCn1c(-c2nonc2N)nc2cnc(Oc3cccc(NC(=O)c4ccc(OCCN(C(C)C)C(C)C)cc4)c3)cc21", "inhibition (%)": 15.1}
{"MOLECULE": "COC(=O)C(C)NCC(=O)c1ccccc1 (stereo unspecified)", "inhibition (%)": 6.16}
{"MOLECULE": "CN1CCCc2ccc(NC(=O)Nc3ccc(-c4ccccc4)cc3)cc2C1", "inhibition (%)": -3.44}
{"MOLECULE": "COc1ccc(NC(=O)Nc2ccc(-c3ccccc3)cc2)cc1Cn1cnc(N2CCCNCC2)cc1=O", "inhibition (%)": 3.65}
{"MOLECULE": "N#Cc1ccnc(-c2ccc(CNC3CCN(CC4Cn5c(=O)ccc6ccc(F)c4c65)CC3)cc2)c1 (stereo unspecified)", "inhibition (%)": 9.83}
{"MOLECULE": "CCc1cc2c(=O)c(-c3nc(C)cs3)c([C@H](N)Cc3ccc(O)cc3)oc2cc1O", "inhibition (%)": 2.9}
{"MOLECULE": "CCC(C)CN1CCN(c2ccc(NC(=O)c3cccs3)cc2)C(C)C1 (stereo unspecified)", "inhibition (%)": 8.34}
{"MOLECULE": "COc1ccc(NC(=O)C2c3ccccc3C(=O)N(CC(C)C)C2c2cccs2)cc1OC (stereo unspecified)", "inhibition (%)": -0.36}
{"MOLECULE": "CCOc1cc(CC)ccc1C1CCN(CCN2CCC(NC(=O)c3ccc(-c4ccc(C#N)cc4)cc3)CC2)CC1", "inhibition (%)": -0.43}
{"MOLECULE": "Oc1cc(Nc2ccnc3cc(-c4cccc(CN5CCOCC5)c4)ccc23)c(F)cc1Cl", "inhibition (%)": 4.47}
{"MOLECULE": "CCCCOc1ccc(-c2nc3ccccc3[nH]2)cc1", "inhibition (%)": 9.74}
{"MOLECULE": "COc1ccc(CC2(c3ccc(F)cc3)N=C(N)N(CCCc3cccnc3)C2=O)cc1 (stereo unspecified)", "inhibition (%)": 2.7}
{"MOLECULE": "CC(=O)Nc1ccc(Cl)c(Cl)c1", "inhibition (%)": -0.84}
{"MOLECULE": "CC1(C)NC(N)=NC(=N)N1OCc1cccs1", "inhibition (%)": 10.6}
{"MOLECULE": "Oc1cc2c(cc1CN1CCN(Cc3ccccc3F)CC1)CCC2", "inhibition (%)": 1.19}
{"MOLECULE": "CC(C)CNC(=O)c1cncc(-c2ccc(CN3CCC(N4CCCC4)CC3)cc2)c1", "inhibition (%)": 1.79}
{"MOLECULE": "Cc1ccc2c(O)c([N+](=O)[O-])c(O)nc2c1", "inhibition (%)": -1.72}
{"MOLECULE": "O=C(Nc1ccnc(-c2cccnc2)n1)c1cc(C(F)(F)F)cc(C(F)(F)F)c1", "inhibition (%)": -1.69}
{"MOLECULE": "O=C(Nc1ccc2c(ccn2C2CCCN(Cc3cc(F)cc(F)c3F)CC2)c1)c1ccco1 (stereo unspecified)", "inhibition (%)": 1.97}
{"MOLECULE": "CO/C(=C\\C=C\\c1cc2cc(Cl)c(Cl)cc2[nH]1)C(=O)NCCCN1CCN(c2cccc(CCO)c2)CC1", "inhibition (%)": -0.14}

Source listed as ChEMBL document CHEMBL3433997.
